Each recorded value in this set is attributed to patent US4942256A.

- Tested on: human washed platelets stimulated with U-46619
- assayProcedure: Inhibition of U-46619 stimulated aggregation of human washed platelets by SC-46985
- Type: cell-based
- experimentalSetup: Platelet
valueType: pIC50
Answers are plain numbers, as −log10 of the molar value.

Exam item: Look up pIC50 for this compound: CC(=NNC(=S)Nc1ccccc1)[C@H]1[C@@H]2CC[C@@H](C2)[C@@H]1C/C=C\CCCC(=O)O [SC-46985]
Marked response: 5.25
